Study system: UniProt:Q29010
pIC50: −log10 of the molar value.
Measured metric: pIC50

{"Compound": "CCCCCC(=O)NC(CSC12CCC3(O)CC(C)=CC(=O)C3(O)C1(O)C(=O)c1cccc(O)c1C2=O)C(=O)O (stereo not drawn)", "Measured": 4.77}

[P] COC(=O)[C@H](Cc1c[nH]c2ccccc12)NC(=O)C(CSC12CCC3(O)CC(C)=CC(=O)C3(O)C1(O)C(=O)c1cccc(O)c1C2=O)NC(C)=O (stereo partly drawn)
[Q] CC(=O)NC(CSC12C(=O)c3c(O)cccc3C(=O)C1(O)C1(O)C(=O)C=C(C)CC1(O)CC2O)C(=O)O (stereo not drawn)
Two entries are listed, P and Q . Which one carries the higher pIC50? Reply with the label of the item you choose.
Q
(Q: 6.17, P: 4.92)

* * *

Study system: crude receptor membrane fractions of porcine aorta (^125 I-endothelin binding) (Sus scrofa, UniProt Q29010)
pIC50: −log10 of the molar value.
Measured metric: pIC50

{"Molecule": "COC(=O)C(CSC12CCC3(O)CC(C)=CC(=O)C3(O)C1(O)C(=O)c1cccc(O)c1C2=O)NC(C)=O (stereo not drawn)", "Measured": 4.98}

[P] CC[C@H](C)[C@H](NC(=O)C(CSC12CCC3(O)CC(C)=CC(=O)C3(O)C1(O)C(=O)c1cccc(O)c1C2=O)NC(C)=O)C(=O)N[C@@H](Cc1c[nH]c2ccccc12)C(=O)O (stereo partly drawn)
[Q] CC1=CC(=O)C2(O)C(O)(CCC3(SCC(NC(=O)OC(C)(C)C)C(=O)O)C(=O)c4c(O)cccc4C(=O)C32O)C1 (stereo not drawn)
Two entries are listed, P and Q . Which one carries the higher pIC50? Reply with the label of the item you choose.
Q

* * *

Protocol notes: Solubility
Format: physicochemical
Experimental context: water

{"Compound": "CC1=CC(=O)C2(O)C(O)(CCC3(SCC(N)C(=O)O)C(=O)c4c(O)cccc4C(=O)C32O)C1 (stereo not shown)", "Solubility": "sparingly soluble"}
{"Compound": "CC(=O)NC(CSC12C(=O)c3c(O)cccc3C(=O)C1(O)C1(O)C(=O)C=C(C)CC1(O)CC2O)C(=O)O (stereo not shown)", "Solubility": "sparingly soluble"}
{"Compound": "CC1=CC(=O)C2(O)C(O)(C1)CC(O)C1(SCC(N)C(=O)O)C(=O)c3c(O)cccc3C(=O)C12O (stereo not shown)", "Solubility": "sparingly soluble"}

* * *

Study system: crude receptor membrane fractions of porcine aorta (^125 I-endothelin binding) (Sus scrofa, UniProt Q29010)
Sequence (Q29010 21-427): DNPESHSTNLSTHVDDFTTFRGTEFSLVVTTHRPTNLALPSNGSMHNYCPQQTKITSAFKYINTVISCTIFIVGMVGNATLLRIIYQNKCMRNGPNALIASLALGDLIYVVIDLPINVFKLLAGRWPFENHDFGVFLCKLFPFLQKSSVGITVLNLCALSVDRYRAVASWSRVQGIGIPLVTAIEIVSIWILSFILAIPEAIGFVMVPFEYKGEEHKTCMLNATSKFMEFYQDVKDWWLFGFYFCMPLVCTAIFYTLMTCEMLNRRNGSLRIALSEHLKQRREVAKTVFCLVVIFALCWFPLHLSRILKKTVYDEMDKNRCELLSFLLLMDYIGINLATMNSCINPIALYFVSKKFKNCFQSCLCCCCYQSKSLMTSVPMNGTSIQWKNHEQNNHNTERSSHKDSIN
pIC50: −log10 of the molar value.
Measured metric: pIC50

Example cases with answers are listed next.
{"Compound": "COC(=O)C(CSC12C(=O)c3c(O)cccc3C(=O)C1(O)C1(O)C(=O)C=C(C)CC1(O)CC2OC(C)=O)NC(C)=O (stereo not drawn)", "pIC50": 4.87}
{"Compound": "CC1=CC(=O)C2(O)C(O)(CCC3(SCC(NC(=O)Cc4ccc(Cl)cc4)C(=O)O)C(=O)c4c(O)cccc4C(=O)C32O)C1 (stereo not drawn)", "pIC50": 4.41}
{"Compound": "CC1=CC(=O)C2(O)C(O)(C1)CC(O)C1(SCC(N)C(=O)O)C(=O)c3c(O)cccc3C(=O)C12O (stereo not drawn)", "pIC50": 4.68}
{"Compound": "CC1=CC(=O)C2(O)C(O)(CCC3(SCC(NC(=O)c4ccccc4)C(=O)O)C(=O)c4c(O)cccc4C(=O)C32O)C1 (stereo not drawn)", "pIC50": 4.66}
{"Compound": "COC(=O)C(CSC12CCC3(OC(C)=O)CC(C)=CC(=O)C3(OC(C)=O)C1(OC(C)=O)C(=O)c1cccc(OC(C)=O)c1C2=O)NC(C)=O (stereo not drawn)", "pIC50": 3.45}
{"Compound": "COC(=O)C(CSC12C(=O)c3c(OC(C)=O)cccc3C(=O)C1(O)C1(O)C(=O)C=C(C)CC1(O)CC2OC(C)=O)NC(C)=O (stereo not drawn)", "pIC50": 4.99}

[I] CC[C@H](C)[C@H](NC(=O)C(CSC12CCC3(O)CC(C)=CC(=O)C3(O)C1(O)C(=O)c1cccc(O)c1C2=O)NC(C)=O)C(=O)N[C@@H](Cc1c[nH]c2ccccc12)C(=O)OC (stereo partly drawn)
[II] CC(=O)NC(CSC12CCC3(O)CC(C)=CC(=O)C3(O)C1(O)C(=O)c1cccc(O)c1C2=O)C(=O)NCCO (stereo not drawn)
// compare measured pIC50 between I and II ; output the lower one Reply with the label of the item you choose.
I
(I: 4.43, II: 4.99)

* * *

Protocol notes: Solubility
Type: physicochemical
Experimental context: methanol
Measured metric: Solubility

{"Molecule": "CC(=O)NC(CSC12C(=O)c3c(O)cccc3C(=O)C1(O)C1(O)C(=O)C=C(C)CC1(O)CC2O)C(=O)O (stereo not shown)", "Measured metric": "Solubility", "Measured": "soluble"}
{"Molecule": "CC1=CC(=O)C2(O)C(O)(C1)CC(O)C1(SCC(N)C(=O)O)C(=O)c3c(O)cccc3C(=O)C12O (stereo not shown)", "Measured metric": "Solubility", "Measured": "soluble"}
{"Molecule": "CC(=O)NC(CSC12CCC3(O)CC(C)=CC(=O)C3(O)C1(O)C(=O)c1cccc(O)c1C2=O)C(=O)O (stereo not shown)", "Measured metric": "Solubility", "Measured": "soluble"}

* * *

Study system: UniProt Q29010
Sequence (Q29010 21-427): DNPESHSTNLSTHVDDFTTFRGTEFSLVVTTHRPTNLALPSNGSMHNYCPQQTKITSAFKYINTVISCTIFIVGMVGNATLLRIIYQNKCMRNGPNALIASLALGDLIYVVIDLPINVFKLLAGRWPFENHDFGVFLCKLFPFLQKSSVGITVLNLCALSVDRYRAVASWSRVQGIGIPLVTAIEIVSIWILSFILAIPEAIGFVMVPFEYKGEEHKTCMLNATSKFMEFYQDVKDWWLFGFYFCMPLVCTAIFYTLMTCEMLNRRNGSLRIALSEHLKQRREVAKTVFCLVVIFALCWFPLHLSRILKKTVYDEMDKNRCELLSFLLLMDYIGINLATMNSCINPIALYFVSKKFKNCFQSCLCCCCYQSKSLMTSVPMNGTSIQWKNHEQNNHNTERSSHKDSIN
pIC50: −log10 of the molar value.
Measured metric: pIC50

{"Compound": "CC1=CC(=O)C2(O)C(O)(CCC3(SCC(N)C(=O)O)C(=O)c4c(O)cccc4C(=O)C32O)C1 (stereo not shown) [FR131132]", "pIC50": 3.83}

[P] CC1=CC(=O)C2(O)C(O)(CCC3(SCC(NC(=O)C(C)C)C(=O)O)C(=O)c4c(O)cccc4C(=O)C32O)C1 (stereo not shown) [FR131667]
[Q] CC(=O)NC(CSC12CCC3(O)CC(C)=CC(=O)C3(O)C1(O)C(=O)c1cccc(O)c1C2=O)C(=O)O (stereo not shown) [FR901366]
[R] COC(=O)C(CSC12C(=O)c3c(O)cccc3C(=O)C1(O)C1(O)C(=O)C=C(C)CC1(O)CC2O)NC(C)=O (stereo not shown) [FR129795]
Hey, can you sort those compounds up there by pIC50, smallest first? Your task in answering is to list the labels in the requested order.
P, Q, R

From: patent US5187195A
